Test: sensitizers of A549 cells to miR-34 induction, primary screen, imaging, A549 dox-inducible miR-34, nuclei and caspase counts (AID 1347080)
Conditions: A549 miR-34 inducible, Hoechst nuclei count, 48 h; measured here: relative caspase fold change +Dox/-Dox
Result type: fold change

[[record]]
molecule = "CC=C(C)C(=O)NC(c1ccccc1)C(O)C(=O)OC1C[C@@]2(O)C(OC(=O)c3ccccc3)[C@@H]3[C@]4(OC(C)=O)COC4CC(O)[C@@]3(C)C(=O)C(OC(C)=O)C(=C1C)C2(C)C (stereo partly drawn)"
numeric_value = 0.457

[[record]]
molecule = "CCCCCCCCCOc1ccc2[nH]cc(CCN)c2c1"
numeric_value = 1.96

[[record]]
molecule = "CCCCCCCC/C=C\\CCCCCCCC(=O)N[C@H](C)CO"
numeric_value = 1.87


====

Test: growth inhibition of DIPG glioma cells, dose response, cell-based, SU-DIPG-XIII, MIPE4.0, CellTiter-Glo, qHTS (AID 1347061);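 note: cells exposed to compound for 48 hours before readout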
Conditions: SU-DIPG-XIII viability, CellTiter-Glo ATP luminescence
Results filed as inconclusive are left out. Calls of active or inactive are those of the source. No cut-off is given here; in the data, nearly all actives have AC50 up to about 37 µM.
Result type: AC50

[[record]]
molecule = "CC(C)(O)C(=O)Nc1ccc([N+](=O)[O-])c(C(F)(F)F)c1"
result_type = "AC50"
result = "11.8 µM (active)"

[[record]]
molecule = "CCOP(=O)(OCC)C(C)NC(=O)N(CCCl)N=O (centres undefined)"
result_type = "AC50"
result = "inactive"

[[record]]
molecule = "O=C(O)CCCc1ccc(N(CCCl)CCCl)cc1"
result_type = "AC50"
result = "inactive"

[[record]]
molecule = "O=C(O)c1nn(Cc2ccc(Cl)cc2Cl)c2ccccc12"
result_type = "AC50"
result = "inactive"

[[record]]
molecule = "CCOC(=O)c1cncn1[C@H](C)c1ccccc1"
result_type = "AC50"
result = "inactive"

[[record]]
molecule = "CCCC[N+]1(C)[C@@H]2CC(OC(=O)[C@H](CO)c3ccccc3)C[C@H]1[C@@H]1O[C@@H]12 (some centres undefined)"
result_type = "AC50"
result = "inactive"

[[record]]
molecule = "C[C@]12CC[C@H]3[C@@H](CCC4=CC(=O)CC[C@@H]43)[C@@H]1CC[C@@H]2OC(=O)CCc1ccccc1"
result_type = "AC50"
result = "inactive"

[[record]]
molecule = "N[C@@H]1C[C@H]1c1ccccc1"
result_type = "AC50"
result = "inactive"

[[record]]
molecule = "CO[C@H]1CCC(O[C@H]2C[C@H]([C@]3(C)CC[C@]4(C[C@H](O)[C@@H](C)[C@@H]([C@@H](C)/C=C(\\C)C(=O)[C@H](C)C[C@H](C)C(=O)O)O4)O3)O[C@]3(O[C@@H]([C@H]4O[C@@](O)(CO)[C@H](C)C[C@@H]4C)C[C@@H]3C)[C@@H]2C)O[C@@H]1C (some centres undefined)"
result_type = "AC50"
result = "3.32 µM (active)"

[[record]]
molecule = "NCC1(CC(=O)O)CCCCC1"
result_type = "AC50"
result = "inactive"

[[record]]
molecule = "CCOC(=O)c1c(/C(C#N)=C\\N)c2ccc(Cl)c(Cl)c2n1C"
result_type = "AC50"
result = "inactive"

[[record]]
molecule = "COc1cc(OC)c(OC)cc1C=O"
result_type = "AC50"
result = "inactive"

[[record]]
molecule = "COC[C@H]1OC(=O)c2coc3c2[C@@]1(C)C1=C(C3=O)[C@@H]2CC[C@H](O)[C@@]2(C)C[C@H]1OC(C)=O"
result_type = "AC50"
result = "16.6 µM (active)"

[[record]]
molecule = "C1=C2CCCN[C@H]2[C@@H]2C[C@H]1[C@H]1CCCCN1C2"
result_type = "AC50"
result = "inactive"


====

Test: sensitizers of A549 cells to miR-34 induction, primary screen, imaging, A549 dox-inducible miR-34, nuclei and caspase counts (AID 1347080)
Conditions: A549 miR-34 inducible, Hoechst nuclei count, 48 h; measured here: relative caspase fold change +Dox/-Dox
Result type: fold change

[[record]]
molecule = "CC(C)n1cnc2c(C(=O)N[C@H]3CN4CCC3CC4)cc(Cl)cc21"
result = 0.88

[[record]]
molecule = "CCCCC/C=C\\C/C=C\\C/C=C\\C/C=C\\CCCC(=O)O[C@H](COC(=O)CCCCCCCCCCCCCCCCC)COP(=O)([O-])OCC[N+](C)(C)C"
result = 0.766

[[record]]
molecule = "O=C(O)/C=C/CO"
result = 0.9

[[record]]
molecule = "NC1(c2ccccc2Cl)CCCCC1=O (stereo not drawn)"
result = 1.86

[[record]]
molecule = "CN(N=O)c1ccc(O)c(O)c1"
result = 0.905

[[record]]
molecule = "CN(N=O)c1cc(O)ccc1O"
result = 1.21

[[record]]
molecule = "CCN1C[C@@]2(COC)C3[C@@H](OC)[C@H]4[C@@H]1[C@]3(C(OC)C[C@H]2O)C1C[C@@]2(O)[C@H](OC(=O)c3ccccc3)C1[C@]4(OC(C)=O)[C@@H](O)[C@@H]2OC (stereo partly drawn)"
result = 3.63

[[record]]
molecule = "C[N+]1(C)[C@@H]2CC(OC(=O)C(CO)c3ccccc3)C[C@H]1[C@@H]1O[C@@H]12 (stereo partly drawn)"
result = 1.43

[[record]]
molecule = "CCC1(CC)C(=O)C=CNC1=O"
result = 1.13

[[record]]
molecule = "C=C(C)CN1CC[C@]23c4c5ccc(O)c4OC2c2[nH]c4ccccc4c2C[C@@]3(O)C1C5 (stereo partly drawn)"
result = 1.96

[[record]]
molecule = "COP(=O)(OC)OC=C(Cl)Cl"
result = 1.25

[[record]]
molecule = "C=C(C)[C@@H]1CCC(C)=C[C@H]1C1=C(O)C(=O)C(CCCCC)=CC1=O"
result = 0.935

[[record]]
molecule = "O=S1(=O)N(CCN2CC=C(c3c[nH]c4cc(F)ccc34)CC2)c2cccc3c2N1CCC3"
result = 0.783

[[record]]
molecule = "CCCCC1(C2CCCC2)Cc2cc(OCCCC(=O)O)c(Cl)c(Cl)c2C1=O (stereo not drawn)"
result = 0.91

[[record]]
molecule = "CC1=C2[C@H]3OC(=O)[C@@H](C)[C@@H]3CC[C@@]2(C)C=CC1=O"
result = 0.797

[[record]]
molecule = "CC(=O)OCC1=C(C(=O)O)N2C(=O)[C@@H](N)[C@H]2SC1"
result = 1.55

[[record]]
molecule = "C[C@]12NC(Cc3ccccc31)c1ccccc12"
result = 0.318

[[record]]
molecule = "C(=C\\c1ccccc1)/CN1CCN(CCOC(c2ccccc2)c2ccccc2)CC1"
result = 0.604

[[record]]
molecule = "CC(C)(Cc1c[nH]c2ccc(Cl)cc12)NCCOc1ccccc1OCC1CC1"
result = 1.09

[[record]]
molecule = "COc1ccc(/C=C/C(=O)CC(=O)/C=C/c2ccc(OC)c(OC)c2)cc1OC"
result = 0.752

[[record]]
molecule = "Oc1cc2c(cc1O)C1c3ccccc3CNC1CC2 (stereo not drawn)"
result = 2.62

[[record]]
molecule = "CCNc1nc(Cl)nc(NC(C)C)n1"
result = 0.465

[[record]]
molecule = "Cc1sc2c(c1C)C(c1ccc(Cl)cc1)=NC(CC(N)=O)c1nnc(C)n1-2 (stereo not drawn)"
result = 0.427


====

Assay: survival rescue of mitochondrial mutant cells in low glucose, primary screen, MELAS cybrids, Rieske KO mouse fibroblasts, CellTiter-Glo (AID 1508586);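 note: z relative to plate mean and SD of compound and empty wells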
Conditions: MELAS cybrid survival, CellTiter-Glo 48 h, stronger effect = higher value
Result type: z-score

[[record]]
compound = "CCCCCCCCCCCC[N+](C)(C)CCOc1ccccc1"
result_type = "z-score"
numeric_value = -0.488

[[record]]
compound = "CN1[C@@H]2CC[C@H]1CC(OC1c3ccccc3CCc3ccccc31)C2 (some centres undefined)"
result_type = "z-score"
numeric_value = -1.44

[[record]]
compound = "O=C(O)CNC(=O)c1c(O)c2ccccc2n(Cc2ccccc2)c1=O"
result_type = "z-score"
numeric_value = -0.124

[[record]]
compound = "CC(C)c1c(CN(C)C(C)Cc2ccccc2)n(C)n(-c2ccccc2)c1=O (centres undefined)"
result_type = "z-score"
numeric_value = -1.05


====

Experiment: glucagon-like peptide 1 release enhancers, primary assay, NCI-H716 cell line, NPC library (AID 1117341); note: reference of the scale not given here
Conditions: NCI-H716 cells, at 10 µM, stronger effect = higher value
Result type: GLP1 secretion stimulation (%)

[[record]]
compound = "CN1[C@@H]2CC[C@H]1CC(OC(=O)c1cc(Cl)cc(Cl)c1)C2 (stereo not given in full)"
numeric_value = 13.6

[[record]]
compound = "O=C(N[C@H]1N=C(c2ccccc2F)c2cccc3c2N(CC3)C1=O)c1cc2ccccc2[nH]1"
numeric_value = 1.8

[[record]]
compound = "CC(C)NC(C)C"
numeric_value = -0.1

[[record]]
compound = "C[C@]12C=CC(=O)C=C1CC[C@@H]1[C@@H]2CC[C@@]2(C)[C@H]1CC[C@]2(C)O"
numeric_value = 4

[[record]]
compound = "CCOP(=S)(OCC)Oc1cc(C)nc(C(C)C)n1"
numeric_value = -1.4

